tested-target: Kras and SOS1 (biotin-tagged human Kras loaded with GDP, His-tagged human SOS1) (Homo sapiens, UniProt P01116, G12D)
Construct: made in house; host or cells: E. coli (stated for Kras only)
Sequence (P01116 1-188 isoform P01116-2 G12D): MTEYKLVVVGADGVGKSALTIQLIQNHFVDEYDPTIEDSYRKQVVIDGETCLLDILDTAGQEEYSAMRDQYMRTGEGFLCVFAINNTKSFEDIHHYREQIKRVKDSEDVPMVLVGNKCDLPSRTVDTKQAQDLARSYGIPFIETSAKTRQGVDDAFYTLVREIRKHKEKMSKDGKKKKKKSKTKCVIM
test-name: Protein-protein interaction inhibition between Kras and SOS1 (KrasGl2D-SOS PPI) using AlphaScreen
Type: binding
recorded-conditions: AlphaScreen; biotin-tagged human Kras loaded with GDP, His-tagged human SOS1; read-out: KRAS G12D-SOS PPI IC50
Procedure: Protein-Protein Interaction Inhibition Between Kras and SOS1 (KrasGl2D-SOS PPI) Using AlphaScreen Protein-protein interaction inhibition (PPI) between Kras and SOS1 was measured by energy transfer from nickel-conjugated donor beads to streptavidin-conjugated acceptor beads using biotin-tagged human Kras expressed in E. coli and loaded with GDP after purification and His-tagged human SOS1 enzyme. […]
pIC50: −log10 of the molar value. Starred links: 1 amine or outer side, 2 acyl side, 3 side chain; linkers in the order of their positions; H or OH if unused. Positions of bridges follow the written chain, without caps; N, C: chain ends. Non-standard residues stand in square brackets, D forms with d. Residues, ends and D or L forms follow the SMILES beside them. *: point of attachment. hPhe(3-Cl-4-CF3) = N[C@@H](CCc1ccc(C(F)(F)F)c(Cl)c1)C(=O)O; NMePhe(4-CF3) = CN[C@@H](Cc1ccc(C(F)(F)F)cc1)C(=O)O; NMePhe(4-Cl) = CN[C@@H](Cc1ccc(Cl)cc1)C(=O)O; NMeNle(6-CHF2) = CN[C@@H](CCCCC(F)F)C(=O)O; NMedβ3hAla = C[C@H](CC(=O)[*:2])N(C)[*:1]; Phe(3-Cl) = N[C@@H](Cc1cccc(Cl)c1)C(=O)O; NMeCha = CN[C@@H](CC1CCCCC1)C(=O)O; N(isopentyl)Gly = CC(C)CCNCC(=O)O; NMeAhp(2) = CCCCC[C@H](NC)C(=O)O; NMeChg = CN[C@H](C(=O)O)C1CCCCC1; NMeD = CN[C@@H](CC(=O)O)C(=O)O; NMeL = CN[C@@H](CC(C)C)C(=O)O; NMePra = C#CC[C@H](NC)C(=O)O; NMeV = CN[C@H](C(=O)O)C(C)C; d(β3hA) = C[C@@H](N)CC(=O)O; NMeAbu = CC[C@H](NC)C(=O)O; Morpholide = C1CN(*)CCO1; NMeA = CN[C@@H](C)C(=O)O; NMeAib = CNC(C)(C)C(=O)O; Nle = CCCC[C@H](N)C(=O)O; Piperidide = C1CCN(*)CC1; Pyrrolidide = C1CCN(*)C1; dNMeA = CN[C@H](C)C(=O)O; Ac5c = NC1(C(=O)O)CCCC1; Aze = O=C(O)[C@@H]1CCN1; Sar = CNCC(=O)O
// label 0 strictly below 8 in pIC50; label 1 otherwise

molecule	qualitative-label
CC[C@H](C)[C@@H]1NC(=O)[C@H](CC(C)C)N(C)C(=O)C[C@@H](C)NC(=O)[C@H](C(C)C)N(C)C(=O)C2(CCCC2)NC(=O)[C@@H]2CCCN2C(=O)[C@H](CCc2ccc(C(F)(F)F)c(Cl)c2)NC(=O)CN(C)C(=O)[C@H](CC2CCCCC2)N(C)C(=O)CN(CCC(C)C)C(=O)CN(C)C1=O [Compound 801] (cyclo([Ac5c][NMeV][d(β3hA)][NMeL]I[Sar][N(isopentyl)Gly][NMeCha][Sar][hPhe(3-Cl-4-CF3)]P))	label 0
C#CC[C@H]1C(=O)N[C@@H]([C@@H](C)CC)C(=O)N(C)CC(=O)N(C)CC(=O)N(C)[C@@H](CC2CCCCC2)C(=O)N(C)CC(=O)N[C@@H](CCc2ccc(C(F)(F)F)c(Cl)c2)C(=O)N2CCC[C@H]2C(=O)NC2(CCCC2)C(=O)N(C)[C@@H](C2CCCCC2)C(=O)N(C)[C@H](C(=O)N2CCCCC2)CC(=O)N1C [Compound 551] ([NMePra]I[Sar][Sar][NMeCha][Sar][hPhe(3-Cl-4-CF3)]P[Ac5c][NMeChg][NMeD]-Piperidide; lactam N-11)	label 1
CC[C@H](C)[C@@H]1NC(=O)[C@H](C)N(C)C(=O)C[C@@H](C(=O)N2CCOCC2)N(C)C(=O)[C@H](C(C)C)N(C)C(=O)C2(CCCC2)NC(=O)[C@@H]2CCCN2C(=O)[C@H](CCc2ccc(C(F)(F)F)c(Cl)c2)NC(=O)[C@@H](C)N(C)C(=O)[C@H](CC2CCCCC2)N(C)C(=O)[C@@H]2CCCN2C(=O)CN(C)C1=O [Compound 1788] ([NMeA]I[Sar]P[NMeCha][dNMeA][hPhe(3-Cl-4-CF3)]P[Ac5c][NMeV][NMeD]-Morpholide; lactam N-11)	label 1
CCCC[C@@H]1NC(=O)[C@H](Cc2cccc(Cl)c2)NC(=O)CN(C)C(=O)[C@H](Cc2ccc(Cl)cc2)N(C)C(=O)CN(C)C(=O)CN(C)C(=O)[C@H]([C@@H](C)CC)NC(=O)[C@H](CC(C)C)N(C)C(=O)C[C@@H](C(=O)N2CCCC2)N(C)C(=O)[C@H](CC(C)C)NC(=O)C(C)(C)N(C)C1=O [Compound 1407] ([NMeL]I[Sar][Sar][NMePhe(4-Cl)][Sar][Phe(3-Cl)][Nle][NMeAib]L[NMeD]-Pyrrolidide; lactam N-11)	label 0
CC[C@H](C)[C@@H]1NC(=O)[C@H](CC(C)C)N(C)C(=O)C[C@@H](C(=O)N2CCCCC2)N(C)C(=O)[C@H](C2CCCCC2)N(C)C(=O)C2(CCCC2)NC(=O)[C@@H]2CCCN2C(=O)[C@H](CCc2ccc(C(F)(F)F)c(Cl)c2)NC(=O)CN(C)C(=O)[C@H](CCCCC(F)F)N(C)C(=O)CN(C)C(=O)CN(C)C1=O [Compound 631] ([NMeL]I[Sar][Sar][NMeNle(6-CHF2)][Sar][hPhe(3-Cl-4-CF3)]P[Ac5c][NMeChg][NMeD]-Piperidide; lactam N-11)	label 1
CCCCC[C@H]1C(=O)N(C)[C@H](C(=O)N2CCCCC2)CC(=O)N(C)[C@@H](CC(C)C)C(=O)N[C@@H]([C@@H](C)CC)C(=O)N(C)CC(=O)N(C)CC(=O)N(C)[C@@H](CC2CCCCC2)C(=O)N(C)CC(=O)N[C@@H](CCc2ccc(C(F)(F)F)c(Cl)c2)C(=O)N2CCC[C@H]2C(=O)NC2(CCCC2)C(=O)N1C [Compound 1719] ([NMeL]I[Sar][Sar][NMeCha][Sar][hPhe(3-Cl-4-CF3)]P[Ac5c][NMeAhp(2)][NMeD]-Piperidide; lactam N-11)	label 0
CC[C@H](C)[C@@H]1NC(=O)[C@H](CC)N(C)C(=O)C[C@@H](C(=O)N2CCOCC2)N(C)C(=O)[C@H](C2CCCCC2)N(C)C(=O)C2(CCCC2)NC(=O)[C@@H]2CCCN2C(=O)[C@H](CCc2ccc(C(F)(F)F)c(Cl)c2)NC(=O)CN(C)C(=O)[C@H](Cc2ccc(C(F)(F)F)cc2)N(C)C(=O)CN(C)C(=O)CN(C)C1=O [Compound 1884] ([NMeAbu]I[Sar][Sar][NMePhe(4-CF3)][Sar][hPhe(3-Cl-4-CF3)]P[Ac5c][NMeChg][NMeD]-Morpholide; lactam N-11)	label 1
CC[C@H](C)[C@@H]1NC(=O)[C@H](CC(C)C)N(C)C(=O)C[C@@H](C)N(C)C(=O)[C@H](CC(C)C)NC(=O)C(C)(C)N(C)C(=O)[C@H](CC(C)C)NC(=O)[C@H](CCc2ccc(C(F)(F)F)c(Cl)c2)NC(=O)CN(C)C(=O)[C@H](Cc2ccc(C(F)(F)F)cc2)N(C)C(=O)[C@@H]2CCN2C(=O)CN(C)C1=O [Compound 1403] (cyclo([Aze][NMePhe(4-CF3)][Sar][hPhe(3-Cl-4-CF3)]L[NMeAib]L[NMedβ3hAla][NMeL]I[Sar]))	label 0

###

tested-target: Kras and SOS1 (biotin-tagged human Kras loaded with GDP, His-tagged human SOS1) (Homo sapiens, UniProt P01116, G12D)
Construct: made in house; host or cells: E. coli (stated for Kras only)
test-name: Protein-protein interaction inhibition between Kras and SOS1 (KrasGl2D-SOS PPI) using AlphaScreen
Assay type: binding
recorded-conditions: AlphaScreen; biotin-tagged human Kras loaded with GDP, His-tagged human SOS1; read-out: KRAS G12D-SOS PPI IC50
Procedure: Protein-Protein Interaction Inhibition Between Kras and SOS1 (KrasGl2D-SOS PPI) Using AlphaScreen Protein-protein interaction inhibition (PPI) between Kras and SOS1 was measured by energy transfer from nickel-conjugated donor beads to streptavidin-conjugated acceptor beads using biotin-tagged human Kras expressed in E. coli and loaded with GDP after purification and His-tagged human SOS1 enzyme. […]
Starred links: 1 amine or outer side, 2 acyl side, 3 side chain; linkers in the order of their positions; H or OH if unused. Positions of bridges follow the written chain, without caps; N, C: chain ends. Non-standard residues stand in square brackets, D forms with d. Residues, ends and D or L forms follow the SMILES beside them. hPhe(3-F,4-CF3) = N[C@@H](CCc1ccc(C(F)(F)F)c(F)c1)C(=O)O; X63 = O=C(C(CCc1ccc(C(F)(F)F)c(Cl)c1)N[*:1])[*:2]; NMePhe(4-Me) = CN[C@@H](Cc1ccc(C)cc1)C(=O)O; NMedβ3hAla = C[C@H](CC(=O)[*:2])N(C)[*:1]; X64 = CN(C)CCOCCN(CC(=O)[*:2])[*:1]; NMeCha = CN[C@@H](CC1CCCCC1)C(=O)O; NMeI = CC[C@H](C)[C@H](NC)C(=O)O; NMeD = CN[C@@H](CC(=O)O)C(=O)O; NMeL = CN[C@@H](CC(C)C)C(=O)O; Pip = O=C(O)[C@@H]1CCCCN1; NMeA = CN[C@@H](C)C(=O)O; NMeAib = CNC(C)(C)C(=O)O; Ac5c = NC1(C(=O)O)CCCC1; Aze = O=C(O)[C@@H]1CCN1; Sar = CNCC(=O)O

compound	IC50 [nM]
CC[C@H](C)[C@@H]1NC(=O)[C@H](CC(C)C)N(C)C(=O)C[C@@H](C(=O)N(C)C)N(C)C(=O)[C@H]([C@@H](C)CC)N(C)C(=O)C2(CCCC2)NC(=O)CN(CCOCCN(C)C)C(=O)C(CCc2ccc(C(F)(F)F)c(Cl)c2)NC(=O)CN(C)C(=O)[C@H](Cc2ccc(C)cc2)N(C)C(=O)[C@@H]2CCN2C(=O)[C@H](C)N(C)C1=O (some centres unmarked) [Compound 2181] ([NMeL]I[NMeA][Aze][NMePhe(4-Me)][Sar][X63][X64][Ac5c][NMeI][NMeD]-NMe2; lactam N-11)	5.5
CC[C@H](C)[C@@H]1NC(=O)[C@@H]2CCCCN2C(=O)C[C@@H](C)N(C)C(=O)[C@H](CC(C)C)NC(=O)C(C)(C)N(C)C(=O)[C@H](CC(C)C)NC(=O)[C@H](CCc2ccc(C(F)(F)F)c(F)c2)NC(=O)CN(C)C(=O)[C@H](CC2CCCCC2)N(C)C(=O)CN(C)C(=O)CN(C)C1=O [Compound 649] (cyclo(I[Sar][Sar][NMeCha][Sar][hPhe(3-F,4-CF3)]L[NMeAib]L[NMedβ3hAla][Pip]))	360
